system: SK-MEL-2 melanoma; assay: NCI tumour cell line growth inhibition, 48 h
REPORTED METRIC: TGI (µM)
Give the number; µM is assumed, so skip it.

Solved entries:
compound=CC(C)(C)c1nc2c(o1)C(=Nc1ccccc1)c1ccccc1C2=O assayed_system="SK-MEL-2 melanoma" reported_metric=TGI val=6.99
compound="CCCCCCC1CCC2CCCC(C)N12 (stereo not drawn)" assayed_system="SK-MEL-2 melanoma" reported_metric=TGI val=69.2
compound=Nc1cc2c(cc1[N+](=O)[O-])[nH]c1c(-c3ccccc3)nccc12 assayed_system="SK-MEL-2 melanoma" reported_metric=TGI val=38.2
compound=CN(CCNC(=O)c1[nH]nc2c1ccc1ccccc12)CCNC(=O)c1[nH]nc2c1ccc1ccccc12 assayed_system="SK-MEL-2 melanoma" reported_metric=TGI val=37.9
compound=O=C(Cc1ccc(Cl)c(Cl)c1)NCCCN1CCN(CCCN2CCCCC2)CC1 assayed_system="SK-MEL-2 melanoma" reported_metric=TGI val=21.6
compound="COCCNCC(O)Cn1c2ccc(Cl)cc2c2cc(Cl)ccc21 (stereo not drawn)" assayed_system="SK-MEL-2 melanoma" reported_metric=TGI val=4.18
compound="COc1ccc(-c2cc3c4c(nc5ccccc5c4c2)CC(c2cc(OC)c(OC)c(OC)c2)O3)cc1 (stereo not drawn)" assayed_system="SK-MEL-2 melanoma" reported_metric=TGI val=14.9
compound=C[C@]12CC[C@H](O)CC1=CC[C@@H]1[C@@H]2CC[C@]2(C)C(=O)/C(=C/c3cccc(OCCCn4ccnc4)c3)C[C@@H]12 assayed_system="SK-MEL-2 melanoma" reported_metric=TGI val=51

Task item: Given C/C(=N\Nc1nc2cc(C)ccc2s1)c1ccccn1 , report its TGI on SK-MEL-2 melanoma.
Reply: 1.35

Task item: Given O=S(=O)(Nc1ccc(-c2nc(-c3cccc(OCCN4CCOCC4)c3)c(-c3ccnc(Br)c3)[nH]2)cc1)c1ccccc1 , report its TGI on SK-MEL-2 melanoma.
Reply: 6.87

Task item: Given CCOC(=O)c1cc2cc(Cc3ccc4[nH]c(C(=O)OCC)cc4c3)ccc2[nH]1 , report its TGI on SK-MEL-2 melanoma.
Reply: 81.1

Task item: Given C=C1C(=O)O[C@H]2[C@H]1CC/C(COC(=O)OCCCCCOC(=O)OC/C1=C/CC[C@@]3(C)O[C@H]3[C@H]3OC(=O)C(=C)[C@@H]3CC1)=C\CC[C@@]1(C)O[C@@H]21 , report its TGI on SK-MEL-2 melanoma.
Reply: 3.31

Task item: Given COC1=CC(c2ccc[nH]2)=N/C1=C\c1[nH]c(C)c(C(=O)CCC(=O)Oc2ccc3c(c2)CCC2C3CC[C@]3(C)C(=O)CC[C@@H]23)c1C (stereo partly drawn) , report its TGI on SK-MEL-2 melanoma.
Reply: 58.7

Task item: Given C[C@@H]1O[C@@H](O[C@H]2C[C@@H](O)[C@]3(CO)C4C(CC[C@]3(O)C2)[C@@]2(O)CC[C@H](C3=CC(=O)OC3)[C@@]2(C)C[C@H]4O)[C@H](O)[C@H](O)[C@H]1O (stereo partly drawn) , report its TGI on SK-MEL-2 melanoma.
Reply: 0.17

Task item: Given COc1ccc2c(c1)Oc1nc(N)c(C#N)c(N)c1C2Sc1ccc(SC)cc1 (stereo not drawn) , report its TGI on SK-MEL-2 melanoma.
Reply: 3.28
